B1: HDV Ribozyme (parent)
chain: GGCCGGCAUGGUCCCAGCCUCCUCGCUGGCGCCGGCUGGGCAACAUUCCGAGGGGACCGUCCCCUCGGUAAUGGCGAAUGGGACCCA

Variants of: B1
Assay Name: self-cleavage, relative activity (ratio to wild type); higher = more cleavage; co-transcriptional
For each record, write down the corresponding self-cleavage.
Numbers only.

For orientation, consider the following solved cases.
sequence_record="GGCCGGCAUGGUCCCAGCCUCCUCACUGGCGCCGGCUGGGCAACAUUCCGAGGGGACCGUCCCCUCGGUAAUGGCGAAUCGGACCCA [G25A G80C]" measured_attribute=self-cleavage experimental_value=0.12
sequence_record="GGCCGGCAUGGUCCCAGCCUCUUCGCUGGCGCCGGCUGGGCAACAAUCCGAGGGGACCGUCCCCUCGGUAAUGGCGAAUGGGACCCA [C22U U46A]" measured_attribute=self-cleavage experimental_value=0.295
sequence_record="GGCCGGCAUGGUCCCAGCCUCCUCGCUGGCGCCGGCAGGGCAACAUUCCGAGGGGACCGUCCCCUCGGCAAUGGCGAAUGGGACCCA [U37A U69C]" measured_attribute=self-cleavage experimental_value=0.415
sequence_record="GGCCGACAUGGUCCAAGCCUCCUCGCUGGCGCCGGCUGGGCAACAUUCCGAGGGGACCGUCCCCUCGGUAAUGGCGAAUGGGACCCA [G6A C15A]" measured_attribute=self-cleavage experimental_value=0.375
sequence_record="GGCCGGCAUGGUCCCAGCCUCCUCGCUGGCGCCGGCUGGGCAACAUUCCGAGGGGACCGUCCCCUCGGUAAUGGCGAAUGGCAACCA [G82C C84A]" measured_attribute=self-cleavage experimental_value=0.383

Report self-cleavage for every entry below.
1. GGCCGGCUUGGUCCCAGCCUCCUCGCUGGCGCCGGCUGGGCAACAUUCCGAGGGGACCAUCCCCUCGGUAAUGGCGAAUGGGACCCA [A8U G59A]
2. GGCCGGCAUGGUCCCAGCCUCCUCGCUGGCGCCGGCUGGGCAACAUUCCGAGGGGACCGUCCCCUCGGUUAUGGCGAGUGGGACCCA [A70U A78G]
3. GGGCGGCAUGGUCCCAGCCUCCUCGCUGGCGCCGGCUGGGCAACAUUCCGAGGGGACCGUCCGCUCGGUAAUGGCGAAUGGGACCCA [C3G C63G]
4. GGCCGGCAUAUUCCCAGCCUCCUCGCUGGCGCCGGCUGGGCAACAUUCCGAGGGGACCGUCCCCUCGGUAAUGGCGAAUGGGACCCA [G10A G11U]
5. GGCAGGCAUGGUCCCAGCCUCCUCGCUGGCGCCGGCUGGGCACCAUUCCGAGGGGACCGUCCCCUCGGUAAUGGCGAAUGGGACCCA [C4A A43C]

1. 0.79
2. 0.7
3. 0.307
4. 0.095
5. 0

Report self-cleavage for every entry below.
1. GGCCGGCAUGGUCCCAGCCUCCUGGCUGGCGCCGGCUGGGCAACAUUCCGAGGGGACCGUCCCCUCGGUAAUGGAGAAUGGGACCCA [C24G C75A]
2. GGCCGGCAUGGUCCCAGCCUCCUCGCUGGCGCCGGCUGGACAACAUUCCGAGGGGACCGUCCCCUCGGUAAUGGCGAAUGGGACCAA [G40A C86A]
3. GGCCGGCAUGGUCCCAGCCUCCUCGCUGGCGCCGGCUGGGCAACAUUACGAGGGGACCGUCCCCUCGGUAAUGGCGAAUGGGCCCCA [C48A A83C]
4. GGCCGGCAUGGUCUCAGCCUCCUCGCUGGCGCCGGCUGGGCAACAUUCCGAGGGGACCGUCCCCUCGGUAAUGGCGAAUGGGGCCCA [C14U A83G]
5. GGCCGGCAUGGUCCCAGCCUCCUCGCUGGCGCCGGCUGGGCAACAUUCCGAGGGGACCGUCCCAUCGGUGAUGGCGAAUGGGACCCA [C64A A70G]

[0.0277, 1.2, 0.317, 0.54, 0.749]

meta.source: the RNAGym collection of RNA variant scans (doi:10.7554/elife.80360)
